These measurements were taken from patent US20230365589A1.

study.system: DYRK3 (Homo sapiens, UniProt O43781)
Construct: purchased Carna Biosciences, Inc. 04-133
Sequence (O43781 1-568 isoform O43781-2): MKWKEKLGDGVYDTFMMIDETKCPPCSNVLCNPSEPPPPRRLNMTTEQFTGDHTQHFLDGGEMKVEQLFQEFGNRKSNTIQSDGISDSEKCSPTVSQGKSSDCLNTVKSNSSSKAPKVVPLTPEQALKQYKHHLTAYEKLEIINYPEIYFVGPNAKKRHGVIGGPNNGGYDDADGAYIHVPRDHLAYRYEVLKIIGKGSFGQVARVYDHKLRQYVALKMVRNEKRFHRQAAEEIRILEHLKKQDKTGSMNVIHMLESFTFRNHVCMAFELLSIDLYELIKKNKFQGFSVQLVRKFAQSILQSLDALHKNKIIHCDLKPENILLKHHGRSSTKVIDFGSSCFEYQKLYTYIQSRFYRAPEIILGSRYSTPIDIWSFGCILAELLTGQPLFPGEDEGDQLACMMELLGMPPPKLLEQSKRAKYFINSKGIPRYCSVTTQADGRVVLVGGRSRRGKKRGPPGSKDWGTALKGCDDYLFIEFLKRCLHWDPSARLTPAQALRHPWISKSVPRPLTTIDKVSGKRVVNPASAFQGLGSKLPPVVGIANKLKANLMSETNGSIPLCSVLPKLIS
test: Inhibition test on activity of DYRK family, mobility shift assay (MSA): DYRK3
Format: biochemical
condition.description: MSA, FITC-labeled DYRKtide peptide, ATP 20 μM; read-out: Inhibitory activity DYRK 3 (IC50 class)
assay.endpoint: IC50

Q: Provide IC50, tested on DYRK3 (Homo sapiens, UniProt O43781), for CN1CCC[C@@H]2NC(=O)N(c3nc4c5c(ccc4s3)OCO5)[C@@H]2C1 (racemic) [Example 85] .
Result: ≥ 1000 nM

Q: Provide IC50, tested on DYRK3 (Homo sapiens, UniProt O43781), for O=C1N[C@@H]2CCNC3(CC3)[C@H]2N1c1nc2c3c(ccc2s1)OCC3 [Example 48] .
Result: 10 to 100 nM

Q: Provide IC50, tested on DYRK3 (Homo sapiens, UniProt O43781), for CC[C@H]1C[C@@H]2[C@H](CO1)NC(=O)N2c1nc2c3c(ccc2s1)OCCO3 [Example 43] .
Result: 100 to 1000 nM

Q: Provide IC50, tested on DYRK3 (Homo sapiens, UniProt O43781), for O=C1N[C@H]2CN(C3CC3)CC[C@H]2N1c1nc2c3c(ccc2s1)OCCO3 [Example 88] .
Result: ≥ 1000 nM
